Measured clearance values are reported for all entries that follow.
experiment: Total clearance in Sprague-Dawley rat at 3 mg/kg, iv or 30 mg/kg, po; type: ADME, organism-based; conditions: in vivo
assay metric: clearance

{"columns": ["compound", "assay metric", "obs value"],
 "data": [
  ["CCN(C(=O)Nc1ccc(N(C)C)cc1)C1Cc2ccc(SC(C)(C)C(=O)O)cc2C1 (configuration not stated)", "clearance", "0.11 mL/min/kg"],
  ["CCCCCN(C(=O)Nc1ccc(SC(F)(F)F)cc1)C1Cc2ccc(SC(C)(C)C(=O)O)cc2C1 (configuration not stated)", "clearance", "0.55 mL/min/kg"],
  ["CCCCCN(C(=O)Nc1ccc(N(C)C)cc1)C1Cc2ccc(SC(C)(C)C(=O)O)cc2C1 (configuration not stated)", "clearance", "0.47 mL/min/kg"],
  ["CCN(C(=O)Nc1ccc(OC(F)(F)F)cc1)C1Cc2ccc(SC(C)(C)C(=O)O)cc2C1 (configuration not stated)", "clearance", "0.1 mL/min/kg"],
  ["CCCCCN(C(=O)Nc1ccc(OC(F)(F)F)cc1)C1Cc2ccc(SC(C)(C)C(=O)O)cc2C1 (configuration not stated)", "clearance", "0.25 mL/min/kg"],
  ["CCN(C(=O)Nc1ccc(C(C)C)cc1)C1Cc2ccc(SC(C)(C)C(=O)O)cc2C1 (configuration not stated)", "clearance", "0.81 mL/min/kg"],
  ["CCN(C(=O)Nc1ccc(SC(F)(F)F)cc1)C1Cc2ccc(SC(C)(C)C(=O)O)cc2C1 (configuration not stated)", "clearance", "0.3 mL/min/kg"]
]}

###

target: Peroxisome proliferator-activated receptor alpha (Rattus norvegicus, UniProt P37230); experiment: Agonist activity at rat PPARalpha in rat H4IIE cells assessed as gene induction
Sequence (P37230 whole entry): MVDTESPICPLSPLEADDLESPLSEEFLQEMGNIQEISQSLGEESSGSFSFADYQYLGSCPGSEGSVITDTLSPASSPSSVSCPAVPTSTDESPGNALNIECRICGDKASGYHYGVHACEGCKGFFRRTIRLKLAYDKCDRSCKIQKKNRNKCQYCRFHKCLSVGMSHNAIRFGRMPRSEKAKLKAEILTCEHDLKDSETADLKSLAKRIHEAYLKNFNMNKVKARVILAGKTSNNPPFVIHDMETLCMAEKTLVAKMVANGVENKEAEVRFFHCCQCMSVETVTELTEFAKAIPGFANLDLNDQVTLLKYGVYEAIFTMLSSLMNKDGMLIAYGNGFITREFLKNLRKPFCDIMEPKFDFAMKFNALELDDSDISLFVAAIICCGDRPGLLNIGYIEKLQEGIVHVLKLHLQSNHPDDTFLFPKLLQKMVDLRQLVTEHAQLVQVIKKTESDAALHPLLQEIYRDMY
pEC50: −log10 of the molar value.
Please note: met applies when pEC50 is 7 or greater, and not met applies otherwise.

{"columns": ["molecule", "group"],
 "data": [
  ["CCCCCCCN(C(=O)Nc1ccccc1F)C1Cc2ccc(SC(C)(C)C(=O)O)cc2C1 (centres undefined)", "not met"],
  ["CCCCCN(C(=O)NC1Cc2ccc(SC(C)(C)C(=O)O)cc2C1)c1ccc(OC(F)(F)F)cc1 (centres undefined)", "not met"],
  ["CCCCCCCN(C(=O)Nc1ccc(C(C)C)cc1)C1Cc2ccc(SC(C)(C)C(=O)O)cc2C1 (centres undefined)", "not met"],
  ["CCN(C(=O)Nc1ccc(OC(F)(F)F)cc1)[C@@H]1Cc2ccc(SC(C)(C)C(=O)O)cc2C1", "met"],
  ["CCCCCCCN(C(=O)Nc1ccc(SC(F)(F)F)cc1)C1Cc2ccc(SC(C)(C)C(=O)O)cc2C1 (centres undefined)", "not met"],
  ["CCCCCCN(C(=O)Nc1ccc(OC(F)(F)F)cc1)C1Cc2ccc(SC(C)(C)C(=O)O)cc2C1 (centres undefined)", "not met"],
  ["CCCCCN(C(=O)Nc1ccc(SC(F)(F)F)cc1)C1Cc2ccc(SC(C)(C)C(=O)O)cc2C1 (centres undefined)", "met"],
  ["CCN(C(=O)Nc1ccc(OC(F)(F)F)cc1C)C1Cc2ccc(SC(C)(C)C(=O)O)cc2C1 (centres undefined)", "not met"]
]}

###

assay: AUC in Sprague-Dawley rat at 3 mg/kg, iv or 30 mg/kg, po; assay type: ADME, organism-based; conditions: plasma
Measured AUC values are reported for all entries that follow.

{"columns": ["compound", "AUC"],
 "data": [
  ["CCCCCN(C(=O)Nc1ccc(OC(F)(F)F)cc1)C1Cc2ccc(SC(C)(C)C(=O)O)cc2C1 (configuration not stated)", "121 µg·h/mL"],
  ["CCCCCN(C(=O)Nc1ccc(SC(F)(F)F)cc1)C1Cc2ccc(SC(C)(C)C(=O)O)cc2C1 (configuration not stated)", "54.7 µg·h/mL"],
  ["CCN(C(=O)Nc1ccc(SC(F)(F)F)cc1)C1Cc2ccc(SC(C)(C)C(=O)O)cc2C1 (configuration not stated)", "101 µg·h/mL"],
  ["CCN(C(=O)Nc1ccc(N(C)C)cc1)C1Cc2ccc(SC(C)(C)C(=O)O)cc2C1 (configuration not stated)", "273 µg·h/mL"],
  ["CCCCCN(C(=O)Nc1ccc(N(C)C)cc1)C1Cc2ccc(SC(C)(C)C(=O)O)cc2C1 (configuration not stated)", "63.6 µg·h/mL"],
  ["CCN(C(=O)Nc1ccc(OC(F)(F)F)cc1)C1Cc2ccc(SC(C)(C)C(=O)O)cc2C1 (configuration not stated)", "290 µg·h/mL"],
  ["CCN(C(=O)Nc1ccc(C(C)C)cc1)C1Cc2ccc(SC(C)(C)C(=O)O)cc2C1 (configuration not stated)", "37.1 µg·h/mL"]
]}
